Target: Apoptotic protease-activating factor 1 (Homo sapiens) (UniProt O14727)
Sequence (O14727 whole entry, looked up): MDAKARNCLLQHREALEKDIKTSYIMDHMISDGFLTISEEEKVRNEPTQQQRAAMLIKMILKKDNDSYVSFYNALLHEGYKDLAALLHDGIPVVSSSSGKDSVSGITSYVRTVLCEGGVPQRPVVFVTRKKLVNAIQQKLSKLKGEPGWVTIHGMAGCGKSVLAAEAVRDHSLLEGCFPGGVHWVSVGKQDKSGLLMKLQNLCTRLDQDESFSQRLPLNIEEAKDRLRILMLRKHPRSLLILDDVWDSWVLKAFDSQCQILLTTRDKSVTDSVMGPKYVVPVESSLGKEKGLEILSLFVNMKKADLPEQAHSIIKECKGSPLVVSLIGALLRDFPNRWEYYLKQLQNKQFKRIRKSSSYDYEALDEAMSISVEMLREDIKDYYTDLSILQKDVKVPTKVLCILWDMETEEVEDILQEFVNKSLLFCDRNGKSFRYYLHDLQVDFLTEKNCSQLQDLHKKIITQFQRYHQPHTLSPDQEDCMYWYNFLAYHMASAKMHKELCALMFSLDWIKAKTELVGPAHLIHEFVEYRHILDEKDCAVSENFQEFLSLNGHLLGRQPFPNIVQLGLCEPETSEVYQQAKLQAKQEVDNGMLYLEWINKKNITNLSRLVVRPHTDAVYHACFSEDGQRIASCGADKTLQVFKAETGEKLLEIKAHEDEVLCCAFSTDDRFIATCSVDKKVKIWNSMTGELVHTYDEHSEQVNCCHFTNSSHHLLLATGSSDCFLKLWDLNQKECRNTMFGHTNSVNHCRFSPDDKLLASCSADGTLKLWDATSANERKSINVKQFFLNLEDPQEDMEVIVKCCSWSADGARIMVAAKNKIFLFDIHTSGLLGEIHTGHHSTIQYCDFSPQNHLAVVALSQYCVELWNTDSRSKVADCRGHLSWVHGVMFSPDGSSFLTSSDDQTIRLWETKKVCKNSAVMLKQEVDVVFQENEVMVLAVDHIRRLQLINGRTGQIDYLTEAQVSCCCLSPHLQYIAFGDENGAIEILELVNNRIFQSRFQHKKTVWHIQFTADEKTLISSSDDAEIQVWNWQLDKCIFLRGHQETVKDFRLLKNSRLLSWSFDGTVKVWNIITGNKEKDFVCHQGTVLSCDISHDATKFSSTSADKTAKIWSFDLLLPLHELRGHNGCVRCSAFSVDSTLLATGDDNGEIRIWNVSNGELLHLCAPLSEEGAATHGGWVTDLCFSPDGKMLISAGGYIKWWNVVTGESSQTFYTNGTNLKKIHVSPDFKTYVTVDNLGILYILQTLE
Experiment: enhancers of Apaf-1-driven caspase-3 activation – biochemical, DEVD-Rh110 fluorescence, uHTS, primary screen (AID 489031)
Details: Apaf-1 apoptosome caspase-3 activation, at 20 µM, active compounds read low
In all, about 330,000 compounds went through this assay and about 1,000 (0.3%) were called active. Many of the other results were omitted from the sample, so actives are more common in it than they were.

{"Compound": "COc1cc(C2C(C#N)=C(N)Oc3n[nH]c(-c4ccccn4)c32)cc(OC)c1OC (stereo unspecified)", "activity change, negative = activation": "-84.8% (active)"}
{"Compound": "CCOC(=O)c1ccc(Nc2cc3ccccc3c(=O)[nH]2)cc1", "activity change, negative = activation": "92.5% (inactive)"}
{"Compound": "CCCCNC(=O)C(C)N(CCN(C)C)C(=O)CCCN1C(=O)NC(c2ccc(Cl)cc2)C(C(=O)OCc2ccccc2)=C1C (stereo unspecified)", "activity change, negative = activation": "57.1% (inactive)"}
{"Compound": "O=c1[nH]c2c(c(=O)n1Cc1ccccc1)CCC2", "activity change, negative = activation": "-300% (active)"}
{"Compound": "CCOCCc1c(O)nc(SCC(=O)NCc2ccco2)[nH]c1=O", "activity change, negative = activation": "-133% (active)"}
{"Compound": "Cc1ccc2c(c1)C1CN(C)CCC1N2S(=O)(=O)c1ccc(Oc2ccc([N+](=O)[O-])cc2)cc1 (stereo unspecified)", "activity change, negative = activation": "59.9% (inactive)"}
{"Compound": "CCN1C(=NCc2ccc(OC)cc2)N[C@@H](CCc2ccccc2)[C@H](C(=O)NCc2ccc(OC)cc2)[C@H]1C", "activity change, negative = activation": "40.4% (inactive)"}
{"Compound": "CCOCCCNC(=O)c1c[nH]c2cc(C)ccc2c1=O", "activity change, negative = activation": "-152% (active)"}
{"Compound": "COc1ccc(OCCCC(=O)NCCc2ccccc2)cc1", "activity change, negative = activation": "-144% (active)"}
{"Compound": "Cc1ccc(Nc2nc(CSc3nnc(-c4ccncc4)n3-c3ccccc3C)cs2)cc1", "activity change, negative = activation": "-54.9% (active)"}
{"Compound": "Cc1ccc(S(=O)(=O)C(C#N)c2nc3ccccc3nc2N2CCCC2)cc1C (stereo unspecified)", "activity change, negative = activation": "60% (inactive)"}
{"Compound": "CCc1ccc(CNC(=O)C2CCN(c3nnc(C)c4c(C)n(-c5ccc(C)cc5)nc34)CC2)cc1", "activity change, negative = activation": "42.3% (inactive)"}
{"Compound": "CCCCCCc1cc2cc(-c3nnc(-c4ccccc4)o3)c(=O)oc2cc1O", "activity change, negative = activation": "67.8% (inactive)"}
{"Compound": "O=C(CCNS(=O)(=O)c1ccccc1)NCCSc1ccc(Br)cc1", "activity change, negative = activation": "58.6% (inactive)"}
{"Compound": "O=S(=O)(Nc1ccc(O)c2ccccc12)c1ccc(OC(F)(F)F)cc1", "activity change, negative = activation": "60.9% (inactive)"}
{"Compound": "CCCCCCCCCCOC(=O)Cn1c(COc2cccc(OC)c2)[n+](C)c2ccccc21", "activity change, negative = activation": "65.3% (inactive)"}
{"Compound": "Clc1ccccc1CSc1nnc(-c2ccco2)c(-c2ccco2)n1", "activity change, negative = activation": "49.9% (inactive)"}
{"Compound": "CCCC[C@@H]1CN=C(N)N1CCc1cc(C(F)(F)F)cc(C(F)(F)F)c1", "activity change, negative = activation": "52.3% (inactive)"}
{"Compound": "c1ccc(C[C@H]2CNCCN2CCC23CC4CC(CC(C4)C2)C3)cc1", "activity change, negative = activation": "47.5% (inactive)"}
{"Compound": "Cc1ccc(N=C2NC(=O)/C(=C/C=C/c3ccco3)S2)cc1C", "activity change, negative = activation": "61.8% (inactive)"}
{"Compound": "Cc1ccsc1/C=N/NC(=O)Cc1cc(=O)[nH][nH]1", "activity change, negative = activation": "58.3% (inactive)"}

Values from PubChem BioAssay AID489031
